target.system: bovine lens aldose reductase (Bos taurus, UniProt P16116)
Construct: preparation of the enzyme from bovine lens; from tissue; host or cells: bovine lens
test.summary: In vitro Inhibition of Aldose Reductase in the Bovine Lens
Assay type: biochemical
test.settings: dose 4 × 10^-8 M; DL-glyceraldehyde as substrate
property.name: inhibition at 0.04 µM (%)

chemical.structure | inhibition at 0.04 µM (%)
Cc1cc(OCC(=O)O)c(Cc2ccc3c(Cl)cccc3c2)c(O)c1C=O | 89

1 = COc1cc(OCC(=O)O)c(Cc2ccc3c(Cl)cccc3c2)c(O)c1C=O
2 = Cc1c(Cl)c(OCC(=O)O)c(Cc2ccc3c(Cl)cccc3c2)c(O)c1C=O
Which is greater in inhibition at 0.04 µM, the first item 1 or the second item 2 ? Returns: label corresponding to the selected item.
1
(1: 81%, 2: 49%)

====

target.system: bovine lens aldose reductase (Bos taurus, UniProt P16116)
Construct: preparation of the enzyme from bovine lens; from tissue; host or cells: bovine lens
test.summary: In vitro Inhibition of Aldose Reductase in the Bovine Lens
Type: biochemical
test.settings: dose 4 × 10^-8 M; DL-glyceraldehyde as substrate
property.name: inhibition at 0.04 µM (%)

chemical.structure | property.name | recorded.number
O=Cc1ccc(OCC(=O)O)c(Cc2ccc3c(Cl)cccc3c2)c1O | inhibition at 0.04 µM | 78
O=Cc1ccc(OCC(=O)O)c(Cc2ccc3c(Br)cccc3c2)c1O | inhibition at 0.04 µM | 84
COc1c(C=O)ccc(OCC(=O)O)c1Cc1ccc2c(Cl)cccc2c1 | inhibition at 0.04 µM | 83
O=Cc1ccc(OCC(=O)O)c(Cc2ccc3ccccc3c2Br)c1O | inhibition at 0.04 µM | 78
